Target: T1, murine pro-myostatin (mouse, UniProt O08689 25-376, biotinylated (in the SPR assay))
T1 construct: also called proGDF8 (mouse); mouse pro-myostatin
Experiment: SPR Biacore 8K, biotin-antigen captured
Some binders, each annotated with its measured log10(koff).
The figures below represent log10 of koff, where koff is stated in s⁻¹.

**Query** Look at this binder and give its reported log10(koff). Ab106 (antibody, human IgG4 S228P, kappa, V domains shown) VH: EVQLVESGGGLVQPGGSLRLSCAASGSAFSSYGMSWVRQAPGKGLELVASINSNGGSTYYPDSVKGRFTISRDNAKNSLYLQMNSLRAEDTAVYYCARDLLVRFLEWAGYYGMDVWGQGTTVTVSS VL: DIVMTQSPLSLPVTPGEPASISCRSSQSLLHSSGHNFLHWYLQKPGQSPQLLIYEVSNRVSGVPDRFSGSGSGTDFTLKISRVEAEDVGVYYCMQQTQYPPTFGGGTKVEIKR
**Result** -3.50

**Query** // log10(koff) lookup, key: Ab114 (antibody, human IgG4 S228P, kappa, V domains shown) VH: QVQLVQSGAEVKKPGASVKVSCKVSGGTFRSYTIHWVRQAPGKGLEWMGGMNPSSGHTIYAQKFQGRVTMTEDTSTDTAYMELSSLKSEDTAVYYCARGLDYGEGYYYYGMDVWGQGTTVTVSS VL: DIQMTQSPSSVSASVGDRVTITCRASQGISESLAWYQQKPGKAPKLLIYSASSLESGVPSRFSGSGSGTDFTLTISSLQPEDFANYYCQQGYSSPPYTFGGGTKVEIKR
**Result** -1.68
